# reported Potency (%) compared to GLP-1-G^2, cAMP production; entries follow
- system name: T1, mouse GLP-1 receptor endogenously expressed in βTC6 cells (mouse, UniProt O35659 22-463)
- T1 sequence (looked up): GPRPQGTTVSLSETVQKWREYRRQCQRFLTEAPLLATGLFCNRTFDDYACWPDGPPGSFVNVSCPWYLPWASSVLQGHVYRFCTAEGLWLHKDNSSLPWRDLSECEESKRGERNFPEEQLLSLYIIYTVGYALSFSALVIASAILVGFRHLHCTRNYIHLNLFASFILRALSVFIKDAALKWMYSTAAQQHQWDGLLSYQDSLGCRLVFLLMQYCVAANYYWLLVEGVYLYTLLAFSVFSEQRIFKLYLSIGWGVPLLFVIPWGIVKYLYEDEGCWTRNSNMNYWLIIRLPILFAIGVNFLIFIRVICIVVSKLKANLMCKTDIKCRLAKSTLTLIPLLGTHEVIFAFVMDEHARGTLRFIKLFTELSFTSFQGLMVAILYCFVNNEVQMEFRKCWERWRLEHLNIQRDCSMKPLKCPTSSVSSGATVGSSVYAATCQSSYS
- test protocol: cell-based or functional assay
Numbered stars: 1 amine (or outer) side, 2 acyl side, 3 side chain; on linkers, the order of the positions; unused ones are H or OH. Square brackets hold non-standard residues; d marks the D form. Au = A^u, ureido (oligourea) alanine residue, C[C@@H](CNC(=O)[*:2])N[*:1]
assay metric: Potency (%) compared to GLP-1-G^2, cAMP production

binder	value units	readout relation	obs value
H-HGEGTFTSD[Au][Au][Au]LEGQAAKEFIAWLVKGRG-NH2 (also: oligourea (urea) backbone at A^u units) [GG2[A^UA^UA^U]^10-13]	%	=	0.04
H-HGEGTFTSDVS[Au][Au][Au]GQAAKEFIAWLVKGRG-NH2 (also: oligourea (urea) backbone at A^u units) [GG2[A^UA^UA^U]^12-15]	%	<	0.01
H-HGEGTFTSDVSSYLE[Au][Au][Au]KEFIAWLVKGRG-NH2 (also: oligourea (urea) backbone at A^u units) [GG2[A^UA^UA^U]^16-19]	%	=	0.1
H-HGEGTFTSDVSSYLEGQAAKEFIAWLVKGRG-NH2 [GLP-1-G^2 (GG2)]	%	=	100
H-HGEGTFTSDVSSY[Au][Au][Au]AAKEFIAWLVKGRG-NH2 (also: oligourea (urea) backbone at A^u units) [GG2[A^UA^UA^U]^14-17]	%	=	0.07
